- Target under test: S. aureus DltA (Staphylococcus aureus (strain NCTC 8325 / PS 47), UniProt Q2FZW6)
- Protocol summary: in vitro DltA activity assay (luminescence), S. aureus DltA
- Type: biochemical
- Run parameters: recombinant DltA, 30 min pre-incubation, 0.5 mM D-Alanine, 0.5-5 μM ATP; read-out: S. aureus DltA IC50
- Protocol: The effect of the compounds of the invention on DltA enzymes has been based on the measure of their inhibition of DltA activity in vitro. […] The capacity of the compounds of the invention to inhibit DltA enzymatic activity was assessed using the DltA assays as described below: […] The binding potency of the inhibitors against DltA enzyme was assessed by IC50 determination in an in vitro DltA activity assay. […]
Counter-ions that a name gives are not always drawn.
Result type: IC50 (nM)
Answers are plain numbers, in nM.

Guide cases for IC50, answers given:
Compound | IC50 / nM
CCn1cnc2cc(-c3cc(N(C)CCN(C)C)c(C(N)=O)c4[nH]cnc34)cc(OC)c21 | 13
OCCNc1cc(-c2ccc3c(c2)ncn3C2CCCCC2)c2nc[nH]c2n1 | 520
CN(C)CCN(C)c1cc(-c2ccc(N(C)C)nc2)c2nc[nH]c2c1C(N)=O | 140
NC(=O)c1c(N2CC3CNCC3C2)cc(-c2ccc3c(c2)ncn3C2CCCCC2)c2nc[nH]c12 (centres unmarked) [Example 65, hydrochloride] | 66
NC(=O)c1c(N2CCC(CCO)C2)cc(-c2ccc3c(c2)ncn3C2CCCCC2)c2nc[nH]c12 (centres unmarked) | 77
CN(CCN1CCCC1)c1cc(-c2cnc3c(c2)CCCO3)c2nc[nH]c2c1C(N)=O | 51
OCC1(CO)CCN(c2cc3[nH]cnc3c(-c3ccc4c(c3)ncn4C3CCCCC3)n2)CC1 | 12

Moving on to the next compound.
Prompt: // query IC50 value for entry CN1CCC[C@@H]1COc1cc(-c2cnc3c(c2)CCCO3)c2nc[nH]c2c1C(N)=O
Response: 6.2

* * *

- Target under test: S. Agalactiae DltA (Streptococcus agalactiae serotype III (strain NEM316))
- Protocol summary: in vitro DltA activity assay (luminescence), S. agalactiae DltA
- Type: biochemical
- Description: The effect of the compounds of the invention on DltA enzymes has been based on the measure of their inhibition of DltA activity in vitro. […] The capacity of the compounds of the invention to inhibit DltA enzymatic activity was assessed using the DltA assays as described below: […] The binding potency of the inhibitors against DltA enzyme was assessed by IC50 determination in an in vitro DltA activity assay. […]
Result type: IC50
Answer format: value, then unit.

Molecule | Target under test | IC50
NC(=O)c1c(OC[C@H]2CCCN2)cc(-c2ccc3c(c2)ncn3[C@@H]2CCCC[C@H]2F)c2nc[nH]c12 | S. Agalactiae DltA (Streptococcus agalactiae serotype III (strain NEM316)) | 390 nM

Prompt: // query IC50 value for entry CN1CCC[C@@H]1COc1cc(-c2ccc3c(c2)ncn3C2CCCOC2)c2nc[nH]c2c1C(N)=O (some centres unmarked)
Response: 86 nM

* * *

- Target under test: E. feacalis DltA (Enterococcus faecalis, UniProt Q830N0)
- Sequence (Q830N0 1-506): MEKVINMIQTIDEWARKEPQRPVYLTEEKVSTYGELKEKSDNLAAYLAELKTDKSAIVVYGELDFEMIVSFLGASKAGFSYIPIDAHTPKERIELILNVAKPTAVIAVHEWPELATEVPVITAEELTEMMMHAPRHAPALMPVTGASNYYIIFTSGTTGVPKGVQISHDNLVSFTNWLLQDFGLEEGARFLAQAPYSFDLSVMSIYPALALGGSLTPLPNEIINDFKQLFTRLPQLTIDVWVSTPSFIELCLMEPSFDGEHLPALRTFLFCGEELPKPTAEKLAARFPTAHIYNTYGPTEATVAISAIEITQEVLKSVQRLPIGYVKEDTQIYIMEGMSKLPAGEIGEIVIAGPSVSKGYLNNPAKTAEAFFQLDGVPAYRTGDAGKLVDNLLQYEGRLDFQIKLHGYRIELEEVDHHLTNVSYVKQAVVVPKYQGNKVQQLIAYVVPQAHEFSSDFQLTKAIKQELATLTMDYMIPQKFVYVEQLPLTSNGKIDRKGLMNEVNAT
- Protocol summary: in vitro DltA activity assay (luminescence), E. faecalis DltA
- Type: biochemical
- Run parameters: recombinant DltA, 30 min pre-incubation, 0.5 mM D-Alanine, 0.5-5 μM ATP; read-out: E. feacalis DltA IC50
Please respond with reported pIC50 for every item in the list.
Answers are plain numbers, as −log10 of the molar value.

Guide cases for pIC50, answers given:
Compound | pIC50
N#Cc1c(NCCO)cc(-c2ccc3c(c2)ncn3C2CCCCC2)c2nc[nH]c12 [Example 78] | 6.77
N#Cc1c(N2CC[C@H](CO)C2)cc(-c2ccc3c(c2)ncn3C2CCCCC2)c2nc[nH]c12 [Example 58] | 6.92
CN1CCN(c2cc(-c3ccc4c(c3)ncn4C3CCCCC3)c3nc[nH]c3c2C(N)=O)CC1 [Example 106] | 7.74

Moving on to the next compound.
Prompt: // query pIC50 value for entry NC(=O)c1c(F)cc(-c2ccc3c(c2)ncn3C2CCCCC2)c2nc[nH]c12 [Example 63]
Response: 7.37
